Field: GI50. Provide a value for each of the molecules that follow.
# System: OVCAR-4
# method-description: NCI tumour cell line growth inhibition, 48 h
The source made the active and inactive calls. Cut-off read from the data, not from the text of the source: active = GI50 up to about 1.1 µM and inactive = higher.

# example entries with known answers
{"molecule": "Cc1ccc(S(=O)(=O)c2ccccn2)cc1", "GI50": "> 100 µM (inactive)"}
{"molecule": "CN(C)/N=N/c1ccc2[nH]c(=O)[nH]c2c1", "GI50": "> 100 µM (inactive)"}
{"molecule": "CCn1c2ccccc2c2nnc(NCCCO)nc21", "GI50": "> 100 µM (inactive)"}
{"molecule": "Cc1oc(N)c(S(=O)(=O)/C(C#N)=C/c2ccccc2[N+](=O)[O-])c1C", "GI50": "38.5 µM (inactive)"}

Value sought for every listed molecule: GI50.
1. CC(=O)OCCOCn1c2c(c(=S)[nH]c1=O)CCC2
2. CC(O)C1CC1(CO)CNc1cc(Cl)nc(N)n1 (stereo unspecified)

1. > 100 µM (inactive)
2. > 100 µM (inactive)

----------
# Tested on: RXF 393
# method-description: NCI tumour cell line growth inhibition, 48 h
Activity calls are given as the source filed them. Cut-off read from the data, not from the text of the source: active = GI50 up to about 1.1 µM and inactive = higher.
property-label: GI50

{"molecule": "CS(=O)(=O)CSCSSCS(C)(=O)=O", "property-label": "GI50", "result": "17.1 µM (inactive)"}
{"molecule": "OCC1CCCCN1Cc1nc2cc(Cl)ccc2[nH]1 (stereo unspecified)", "property-label": "GI50", "result": "65 µM (inactive)"}
{"molecule": "COc1c(-c2ccc(F)cc2)oc2c(CC(=O)O)cccc2c1=O", "property-label": "GI50", "result": "> 100 µM (inactive)"}

Provide GI50 for all items below, preserving their order.
1. CN(C(=O)/C=C/c1ccccc1)C1C2CN3CCC(O2)C13 (stereo unspecified)
2. CSc1ccc(/C=C2\CNC/C(=C\c3ccc(SC)cc3)C2=O)cc1
3. Nc1nc(N)c2c3c(cnc2n1)CC(c1ccccc1)CC3 (stereo unspecified)

> 100 µM (inactive)
25.9 µM (inactive)
17.7 µM (inactive)

----------
# System: SF-268
# method-description: NCI tumour cell line growth inhibition, 48 h
Active and inactive are the calls of the source. Cut-off read from the data, not from the text of the source: active = GI50 up to about 1.1 µM and inactive = higher.
Choose one outcome from this list and give only that: 1 for active, -1 for inactive

Example cases with answers are listed next.
{"compound": "CC(O)C1CC1(CO)CNc1cc(Cl)nc(N)n1 (stereo not drawn)", "assigned-category": -1}
{"compound": "NC(=O)CNC(=O)[C@@H]1CC(OCCC(=O)O)CN1C(=O)C1CCCN1C(=O)OCc1ccccc1 (stereo partly drawn)", "assigned-category": -1}

What was the test verdict on "O=c1cc(CC(O)(C(F)(F)Cl)C(F)(F)Cl)[nH]n1-c1ccccc1" ?
-1

Now this one: "CC(=O)Oc1c(OC(C)C)c(C)c(O[Si](C(C)C)(C(C)C)C(C)C)c2[nH]c3ccccc3c12"
-1

Also "Cc1cc(Cc2cc(C)c(N)cc2N)c(N)cc1N" ?
-1

Lookup "Cc1nnc2n1N=C(c1ccc(-c3ccc([N+](=O)[O-])cc3)o1)CS2"
-1

Same again, this time with "CN(C)/N=N/c1ccc2[nH]c(=O)[nH]c2c1"
-1

----------
# Test system: SK-MEL-5
# method-description: NCI tumour cell line growth inhibition, 48 h
Calls of active or inactive are those of the source. No stated cut-off is given here; in the data, active = GI50 up to about 1.1 µM and inactive = higher.
Output constraint: value belongs to active, inactive

Solved entries (count: 4):
{"compound-string": "OCCO[P+]1(OCCO)n2c3ccc2C(c2ccccc2)=C2C=CC(=N2)C(c2ccccc2)=c2ccc(n21)=C(c1ccccc1)C1=NC(=C3c2ccccc2)C=C1", "assigned-category": "active"}
{"compound-string": "CC(C)=CCC/C(C)=C/CC/C(C)=C/CCN(C)CCO", "assigned-category": "inactive"}
{"compound-string": "CN(C)/N=N/c1ccc2[nH]c(=O)[nH]c2c1", "assigned-category": "inactive"}
{"compound-string": "CC/C(=C\\c1ccc(OC)cc1)c1ccc(OC)cc1", "assigned-category": "inactive"}

API: the following record is the query input.
What call does the record list for "CC(C)CC/N=c1/cc2n(-c3ccc(Cl)cc3)c3ccccc3nc-2cc1Nc1ccc(Cl)cc1" ?
inactive

----------
# Test system: NCI-H460
# method-description: NCI tumour cell line growth inhibition, 48 h
Calls of active or inactive are those of the source. Cut-off read from the data, not from the text of the source: active = GI50 up to about 1.1 µM and inactive = higher.
Thanks in advance; please answer with one of these: YES = active, NO = inactive

Returns: the outcome recorded for "FC(F)(F)C1(Cl)C(c2ccccc2)=C1c1ccccc1" in this assay.
NO

One more molecule: "CCCNC1=C2C[C@@H](C)C[C@@H](OC)[C@@H](OC(=O)CCCN)[C@H](C)/C=C(\C)[C@@H](OC(N)=O)[C@H](OC)/C=C\C=C(/C)C(=O)NC(=CC1=O)C2=O"
NO

Then this molecule: "CCOc1cc(/C=N/c2nc3cc4sc(/N=C/c5ccc(O)c(OCC)c5)nc4cc3s2)ccc1O"
NO

Next entry: c1ccc(-c2cccc(-c3ccccn3)n2)nc1 [TERPYRIDINE]
YES

Thanks! And "O=c1cc(CC(O)(C(F)(F)Cl)C(F)(F)Cl)[nH]n1-c1ccccc1" ?
NO

----------
# System: COLO 205
# method-description: NCI tumour cell line growth inhibition, 48 h
Calls of active or inactive are those of the source. Rule as the data show it: active = GI50 up to about 1.1 µM and inactive = higher. Where a SMILES comes first, the peptide text is derived from it. [ ]: non-standard residue; d: D form. The star is where a group is joined. ξ: configuration not given here. ξF = NC(Cc1ccccc1)C(=O)O; Cbz = O=C(OCc1ccccc1)*; Aib = CC(C)(N)C(=O)O; NHNH2 = NN*
Exercise: for every item that follows, state its recorded GI50.

Completed entries (count: 3):
{"compound": "CCOC(=O)CNc1nnnn1C1OC(CO)C(O)C1O (stereo unspecified)", "GI50": "> 100 µM (inactive)"}
{"compound": "COc1cccc2c3ccccc3c3nc[nH]c3c12", "GI50": "17.9 µM (inactive)"}
{"compound": "Cc1cccc2sc(-c3ccc(O)cc3)nc12", "GI50": "14.9 µM (inactive)"}

Give me GI50 for each of these compounds, listed below.
1. CN(C)CCNc1ccc2nnn3c4ccc(O)cc4c(=O)c1c23
2. C=CCOC(=O)Cn1cc(C)c(=O)[nH]c1=O
3. CC(C)(NC(=O)OCc1ccccc1)C(=O)NC(Cc1ccccc1)C(=O)NN (stereo unspecified) (Cbz-[Aib]-[ξF]-NHNH2)
4. C=Cc1nc2nnc(CCCCCCCCc3nnc4nc(C=C)[nH]n34)n2[nH]1
5. COc1cc(C2c3cc4c(cc3OC(N3CCOCC3)C2C)OCO4)cc(OC)c1OC(C)=O (stereo unspecified)
6. Cc1nnc2n1N=C(c1ccc(-c3ccc([N+](=O)[O-])cc3)o1)CS2
7. COc1cccc(C2c3cc4c(cc3OC(C)(N3CCCC3)C2C)OCO4)c1 (stereo unspecified)
8. CC1(C)OCC(C(O)C2OC(C)(C)OC2/C=N\O)O1 (stereo unspecified)

1. 3.39 µM (inactive)
2. > 100 µM (inactive)
3. > 100 µM (inactive)
4. > 100 µM (inactive)
5. 19.3 µM (inactive)
6. > 100 µM (inactive)
7. 11.4 µM (inactive)
8. > 100 µM (inactive)

----------
Provide the reported GI50 of each item.
# Tested on: M14
# method-description: NCI tumour cell line growth inhibition, 48 h
Active and inactive are the calls of the source. No stated cut-off is given here; in the data, active = GI50 up to about 1.1 µM and inactive = higher.

// below: answered compounds
{"compound": "COc1c(N2CCCCC2)c2c(=O)c3ccccc3oc2c2cc(C)oc12", "GI50": "14.8 µM (inactive)"}
{"compound": "Cn1c(=O)nc2n(-c3ccc(O)cc3)c3ccccc3nc-2c1=O", "GI50": "20.4 µM (inactive)"}
{"compound": "COC(=O)NC1C(C)OC(OC2C/C=C(/C)C3C=CC4C(OC5CC(OC6CC(OC7CC(O)C(O)C(C)O7)C(OC7CC(O)C(OC)C(C)O7)C(C)O6)C(O)C(C)O5)C(C)CC(C)C4C3(C)C(=O)C3=C(O)C4(CC(C)C(CO)=CC4/C=C\\2C)OC3=O)CC1(C)[N+](=O)[O-] (stereo not drawn)", "GI50": "17.1 µM (inactive)"}
{"compound": "O=C(c1ccc2c3c(ccc(C(=O)C(F)(F)F)c13)CC2)C(F)(F)F", "GI50": "34.4 µM (inactive)"}
{"compound": "CS(=O)(=O)c1ccc2nc(-c3ccc(O)cc3)sc2c1", "GI50": "21.6 µM (inactive)"}
{"compound": "COc1ccc2c(-c3ccc(OCCN(C)C)cc3)c(Oc3ccccc3)c(=O)oc2c1", "GI50": "1.64 µM (inactive)"}
{"compound": "[N-]=[N+]=NC1(c2ccccc2)C(=O)C(Cl)=C(c2ccccc2)N(c2ccccc2)C1=O (stereo not drawn)", "GI50": "> 100 µM (inactive)"}

What does the data say about its GI50? Entry: NC(=O)c1cccc(C2OC(COP(=O)(O)O)C(O)C2O)c1 (stereo not drawn)
20 µM (inactive)
